Each record here notes measured percent inhibition (TR-FRET).
- experimental_target: MAGE-A11:PCF11 interaction (GST-MAGE-A11 and FAM-PCF11_4) (Homo sapiens)
- Construct: GST-MAGE-A11 MHD (human MAGE-A11 MHD amino acid 218-429); made in house; host or cells: E. coli BL21(DE3)
- Sequence (P43364 218-429): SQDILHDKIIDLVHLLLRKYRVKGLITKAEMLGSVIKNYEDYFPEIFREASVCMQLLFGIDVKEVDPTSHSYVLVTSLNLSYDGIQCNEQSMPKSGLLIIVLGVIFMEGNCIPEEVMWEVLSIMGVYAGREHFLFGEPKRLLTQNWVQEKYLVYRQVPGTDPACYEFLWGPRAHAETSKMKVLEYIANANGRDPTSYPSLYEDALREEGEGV
- assay_text: TR-FRET primary / single point screen at 15 µM
- Assay type: binding
- assay_context: single point TR-FRET screening of 797 quinoline compounds against MAGE-A11:PCF11
The response must contain the number and no unit.

Reported percent inhibition (TR-FRET), molecule Fc1ccccc1CN(CCCCNc1ccnc2cc(Cl)ccc12)Cc1ccccc1 : ____
20.7772

Can you check CCN1CCN(c2c(C(=O)c3ccccc3)cnc3ccc(OC)cc23)CC1 next?
-0.2733

Can you check COc1ccc2nc3cc(Cl)ccc3c(NCCCNCc3cc(F)ccc3OC)c2c1 next?
-365.36

Can you check COc1ccc2ncc(S(=O)(=O)c3ccccc3)c(N3CCN(c4ccccc4)CC3)c2c1 next?
-132.977

Further cases:
Reported percent inhibition (TR-FRET), molecule COc1ccc2nc3cc(Cl)ccc3c(NCCCNCc3ccc(C)s3)c2c1 : ____
-304.796

Can you check Clc1ccc2c(NCCCCN(Cc3ccccc3)Cc3ccc(Br)s3)ccnc2c1 next?
22.0375

Can you check CCCN(CCCCNc1ccnc2cc(Cl)ccc12)Cc1c[nH]c2ccccc12 next?
-3.378

Can you check CCN1CCN(c2c(S(=O)(=O)c3ccccc3)cnc3ccc(Cl)cc23)CC1 next?
4.43
